TEST SUMMARY: Analysis of Col1a1/FVII siRNA lipid particle composition (Production Example 2)
Type: physicochemical
CONDITION DETAILS: lipid particle cationic lipid:DPPC:cholesterol:GM-020=60:10.6:28:1.4 with Col1a1 and FVII siRNA; Zetasizer Nano ZS
MEASURE: Particle size (nm)

CPD SMILES: CCCC/C=C\CCCCCCCC(=O)OCC(COC(=O)CCCCCCC/C=C\CCCC)(COC(=O)CCCCCCCCCCC)COC(=O)CCCN(C)C
Particle size (nm): 85

CPD SMILES: CCCC/C=C\CCCCCCCC(=O)OCC(COC(=O)CCCCCCC/C=C\CCCC)(COC(=O)CCCCCCC/C=C\CCCC)COC(=O)CCCCCN(C)C
Particle size (nm): 117

CPD SMILES: CCCC/C=C\CCCCCCCC(=O)OCC(COC(=O)CCCCCCC/C=C\CCCC)(COC(=O)CCCCCCC/C=C\CCCCCC)COC(=O)CCCCN(C)C
Particle size (nm): 103

CPD SMILES: CCCC/C=C\CCCCCCCC(=O)OCC(COC(=O)CCCCCCC/C=C\CCCC)(COC(=O)CCCCCCC/C=C\CCCCCCCC)COC(=O)CCCCN(C)C
Particle size (nm): 87

CPD SMILES: CCCC/C=C\CCCCCCCC(=O)OCC(COC(=O)CCCCCCC/C=C\C/C=C\CCCCC)(COC(=O)CCCCCCC/C=C\CCCC)COC(=O)CCCCN(C)C
Particle size (nm): 102

CPD SMILES: CCCC/C=C\CCCCCCCC(=O)OCC(COC(=O)CCCCCCC/C=C\CCCC)(COC(=O)CCCCCCCCC)COC(=O)CCCN(C)C
Particle size (nm): 88

CPD SMILES: CCCC/C=C\CCCCCCCC(=O)OCC(COC(=O)CCCCCCC/C=C\CCCC)(COC(=O)CCCCCCC/C=C\CCCC)COC(=O)CCCCN(C)C
Particle size (nm): 104

CPD SMILES: CCCC/C=C\CCCCCCCC(=O)OCC(COC(=O)CCCCCCC/C=C\CCCC)(COC(=O)CCCCCCC/C=C\CCCCCC)COC(=O)CCCN(C)C
Particle size (nm): 90

----------
TEST SUMMARY: Analysis of luciferase mRNA lipid particle composition (Production Example 1)
Assay type: physicochemical
CONDITION DETAILS: lipid particle composition with luciferase mRNA; RiboGreen
MEASURE: Encapsulation ratio (%)

Record excerpt, results attached:
COMPOUND: CCCC/C=C\CCCCCCCC(=O)OCC(COC(=O)CCCCCCC/C=C\CCCC)(COC(=O)CCCCCCCCCCC)COC(=O)CCCN(C)C [Example 11]
SCALE UNIT: %
VALUE OBSERVED: 92
//
COMPOUND: CCCC/C=C\CCCCCCCC(=O)OCC(COC(=O)CCCCCCC/C=C\CCCC)(COC(=O)CCCCCCC/C=C\CCCC)COC(=O)CCCCN(C)C [Example 2]
SCALE UNIT: %
VALUE OBSERVED: 96
//
COMPOUND: CCCC/C=C\CCCCCCCC(=O)OCC(COC(=O)CCCCCCC/C=C\CCCC)(COC(=O)CCCCCCC/C=C\CCCCCC)COC(=O)CCCCN(C)C [Example 5]
SCALE UNIT: %
VALUE OBSERVED: 98

a. CCCC/C=C\CCCCCCCC(=O)OCC(COC(=O)CCCCCCC/C=C\CCCC)(COC(=O)CCCCCCC/C=C\CCCC)COC(=O)CCCN(C)C [Example 1]
b. CCCC/C=C\CCCCCCCC(=O)OCC(COC(=O)CCCCCCC)(COC(=O)CCCCCCC/C=C\CCCC)COC(=O)CCCN(C)C [Example 9]
Identify the entry with the smaller Encapsulation ratio: a or b . # respond with the chosen item's label
b
(b: 62%, a: 96%)
